The reported measurements were obtained from ChEMBL document CHEMBL1146245.

System: A-431
Assay: Cytotoxicity against human A431 cells
Assay type: functional
Conditions: read-out: ED50 (the source's name)
Kindly supply the reported EC50 values for the records listed here.
# number only, unit µg/mL dropped from output

Bench note, A-431: entry CC(=O)O[C@H]1C(=O)[C@]2(C)[C@@H](OC(=O)CCC(=O)O)C[C@H]3OC[C@@]3(OC(C)=O)[C@H]2[C@H](OCc2ccccc2)[C@]2(O)C[C@H](OC(=O)[C@H](OC(=O)CCC(=O)Oc3c(C)c(C)c4c(c3C)OC(C)(CCC[C@@H](C)CCC[C@@H](C)CCCC(C)C)CC4)[C@@H](NCc3ccccc3)c3ccccc3)C(C)=C1C2(C)C.CCN(CC)CC (some centres undefined) , its EC50 = 0.2

Bench note, A-431: entry CC(=O)O[C@H]1C(=O)[C@@]2(C)[C@H]([C@H](OCc3ccccc3)[C@]3(O)C[C@H](OC(=O)[C@H](OC(=O)CCC(=O)Oc4c(C)c(C)c5c(c4C)OC(C)(CCC[C@@H](C)CCC[C@@H](C)CCCC(C)C)CC5)[C@@H](NCc4ccccc4)c4ccccc4)C(C)=C1C3(C)C)[C@]1(OC(C)=O)CO[C@@H]1C[C@@H]2O (some centres undefined) , its EC50 = 0.1

Bench note, A-431: entry CC(=O)O[C@H]1C(=O)[C@]2(C)[C@@H](OC(=O)CN(C)C)C[C@H]3OC[C@@]3(OC(C)=O)[C@H]2[C@H](OCc2ccccc2)[C@]2(O)C[C@H](OC(=O)[C@H](OC(=O)CCC(=O)Oc3c(C)c(C)c4c(c3C)OC(C)(CCC[C@@H](C)CCC[C@@H](C)CCCC(C)C)CC4)[C@@H](NCc3ccccc3)c3ccccc3)C(C)=C1C2(C)C.CS(=O)(=O)O (some centres undefined) , its EC50 = 0.1

Bench note, A-431: entry CC(=O)O[C@H]1C(=O)[C@]2(C)[C@@H](OC(=O)CN(C)C)C[C@H]3OC[C@@]3(OC(C)=O)[C@H]2[C@H](OCc2ccccc2)[C@]2(O)C[C@H](OC(=O)[C@H](OC(=O)CCC(=O)Oc3c(C)c(C)c4c(c3C)OC(C)(CCC[C@@H](C)CCC[C@@H](C)CCCC(C)C)CC4)[C@@H](NCc3ccccc3)c3ccccc3)C(C)=C1C2(C)C (some centres undefined) , its EC50 = 0.2
